# MEASURED TARGET: Aryl hydrocarbon receptor (Homo sapiens)
# ASSAY TEXT: qHTS assay to identify small molecule that activate the aryl hydrocarbon receptor (AhR) signaling pathway (AID 743085); note: nearly all actives have a fitted effect of over 15% in size;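 for activation: HG2L7.5c1 human HepG2 liver cells with stably integrated DRE-driven firefly reporter; % is set by controls: 0 for no effect and ±100 for the full control effect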
# CONDITION INFO: HepG2 AhR-luc (HG2L7.5c1), luciferase, 24 h; series mostly up to 70.3 µM
Results filed as inconclusive are left out. The source made the active and inactive calls. Calls come from the whole dose curve; as a rule, active = well fitted activation curve with a large enough effect in the repeat runs; inconclusive = weak or mixed curves; inactive = no such curve, though single readings can be large or run the other way.
Log the outcome using a class from active, inactive

Take a look at these entries with their results.
[[record]]
molecule = "CN(CCO)CCO"
classification = "inactive"

[[record]]
molecule = "CCNc1nc(Cl)nc(NC(C)(C)C)n1"
classification = "inactive"

[[record]]
molecule = "ClCOCCl"
classification = "inactive"

[[record]]
molecule = "CCCN1CCC[C@@H]2Cc3[nH]ncc3C[C@H]21"
classification = "active"


As a next step, examine the molecule that follows.
Please indicate how the test categorized CN(C)C(=O)Oc1cc(OC(=O)N(C)C)cc(C(O)CNC(C)(C)C)c1 (stereo not given) .
inactive

* * *

# ASSAY TEXT: qHTS assay to identify small molecule antagonists of the constitutive androstane receptor (CAR) signaling pathway - cell viability counter screen (AID 1224837); note: % is set by controls: 0 for no effect and ±100 for the full control effect; nearly all actives have a fitted effect of over 45% in size
# CONDITION INFO: HepG2-CYP2B6-hCAR viability, CellTiter-Fluor, 23 h, co-treated with 50 nM CITCO; series mostly up to 92.4 µM
Results filed as inconclusive are left out. Active and inactive are the calls of the source. Calls follow the shape of the dose curve; as a rule, active = well fitted cell-killing curve with a large enough effect in the repeat runs; inconclusive = weak or mixed curves, or effect the other way; inactive = flat fitted curve, though single readings scatter.
PARAMETER: activity change, negative = cytotoxicity

Below, 4 molecules whose answers are already recorded.
[[record]]
molecule = "CC(=O)CN(CC(C)=O)N=O"
parameter = "activity change, negative = cytotoxicity"
obs_value = "inactive"

[[record]]
molecule = "CCN(CC)CCOC(=O)C(O)(c1ccccc1)c1ccccc1"
parameter = "activity change, negative = cytotoxicity"
obs_value = "inactive"

[[record]]
molecule = "Cc1ccc(S(=O)(=O)N[C@@H](CCCCN)C(=O)CCl)cc1"
parameter = "activity change, negative = cytotoxicity"
obs_value = "inactive"

[[record]]
molecule = "CC[C@H](O)C(C[C@H](C)N(C)C)(c1ccccc1)c1ccccc1"
parameter = "activity change, negative = cytotoxicity"
obs_value = "inactive"


Complete the entry with activity change, negative = cytotoxicity for CCCOC(=O)Cc1ccc(OCC(=O)N(CC)CC)c(OC)c1
inactive

Give reported activity change, negative = cytotoxicity value for CCC1(CC)C(=O)C=CNC1=O
inactive

Return the recorded activity change, negative = cytotoxicity value; entry: Cc1cccc2sc3nncn3c12
inactive

Let me know recorded activity change, negative = cytotoxicity for [P]#[In] , thanks.
inactive

Provide only the value of recorded activity change, negative = cytotoxicity for CC(=O)OCC1=C(C(=O)O)N2C(=O)[C@@H](N)[C@H]2SC1
5.22% [at 19 µM] (inactive)

Specify measured activity change, negative = cytotoxicity for CCOC(=O)C(SP(=S)(OC)OC)c1ccccc1 (centres undefined) .
inactive

Please supply the value of reported activity change, negative = cytotoxicity for the item CCCC(C)(COC(N)=O)COC(N)=O
inactive

* * *

# MEASURED TARGET: Cytochrome P450 2D6 (Homo sapiens) (UniProt P10635)
# Sequence (P10635 whole entry, looked up): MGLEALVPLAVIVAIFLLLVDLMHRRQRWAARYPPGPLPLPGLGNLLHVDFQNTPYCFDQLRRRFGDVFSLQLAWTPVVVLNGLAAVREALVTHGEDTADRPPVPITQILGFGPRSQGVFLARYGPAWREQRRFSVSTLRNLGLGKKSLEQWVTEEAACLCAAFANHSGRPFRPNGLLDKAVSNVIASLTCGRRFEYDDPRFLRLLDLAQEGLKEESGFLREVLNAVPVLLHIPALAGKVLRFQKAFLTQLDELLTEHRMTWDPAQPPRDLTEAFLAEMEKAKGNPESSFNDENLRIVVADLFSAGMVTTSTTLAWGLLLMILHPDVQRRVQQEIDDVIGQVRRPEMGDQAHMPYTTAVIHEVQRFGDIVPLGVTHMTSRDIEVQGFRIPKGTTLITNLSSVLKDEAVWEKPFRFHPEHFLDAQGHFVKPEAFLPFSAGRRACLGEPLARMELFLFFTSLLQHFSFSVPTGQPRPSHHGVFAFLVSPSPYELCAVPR
# ASSAY TEXT: Cytochrome P450 Family 2 Subfamily D Member 6 (CYP2D6) small molecule antagonists: luciferase reporter qHTS assay (AID 1671196); note: nearly all actives have a fitted effect of over 50% in size
# CONDITION INFO: P450-Glo CYP2D6 enzyme assay, luciferin luminescence, 1 h; series mostly up to 115 µM
Inconclusive results are not listed. Active and inactive are the calls of the source. The call rests on the fitted dose curve; in most records, active means well fitted inhibition curve with a large enough effect in the repeat runs; inconclusive means weak or mixed curves; inactive means no such curve, though single readings can be large or run the other way.
Answer with one of the outcomes given here: YES for active, NO for inactive

[[record]]
compound = "O=C(O)C(F)(F)C(F)(F)C(F)(F)C(F)(F)C(F)(F)C(F)(F)F"
classification = "NO"

[[record]]
compound = "CCCOC(=O)Cc1ccc(OCC(=O)N(CC)CC)c(OC)c1"
classification = "NO"

[[record]]
compound = "CN(C)C1CCCCC1"
classification = "NO"


Dear all, I need the recorded test outcome for O=C(Cl)CCl , thank you.
YES

Each compound tested received a call. Report the one for C=CC(=O)OCCN(C)C .
NO

Test call for this compound, please: CC(C)(N)Cc1ccc(Cl)cc1
YES

Dear colleague, could you share the recorded outcome for C=CCC1(C(C)CC)C(=O)NC(=O)NC1=O (centres undefined) when you have a moment?
NO

// return assay outcome for CCCCCCCCBr
NO

// provenance: PubChem BioAssay (Tox21)
